Source listed as paper PMC10786891.

- MEASURED TARGET: T1, EsCas13d, nuclease-dead (Eubacterium siraeum, UniProt B0MS50, R295A;H300A;R849A;H854A)
- T1 sequence: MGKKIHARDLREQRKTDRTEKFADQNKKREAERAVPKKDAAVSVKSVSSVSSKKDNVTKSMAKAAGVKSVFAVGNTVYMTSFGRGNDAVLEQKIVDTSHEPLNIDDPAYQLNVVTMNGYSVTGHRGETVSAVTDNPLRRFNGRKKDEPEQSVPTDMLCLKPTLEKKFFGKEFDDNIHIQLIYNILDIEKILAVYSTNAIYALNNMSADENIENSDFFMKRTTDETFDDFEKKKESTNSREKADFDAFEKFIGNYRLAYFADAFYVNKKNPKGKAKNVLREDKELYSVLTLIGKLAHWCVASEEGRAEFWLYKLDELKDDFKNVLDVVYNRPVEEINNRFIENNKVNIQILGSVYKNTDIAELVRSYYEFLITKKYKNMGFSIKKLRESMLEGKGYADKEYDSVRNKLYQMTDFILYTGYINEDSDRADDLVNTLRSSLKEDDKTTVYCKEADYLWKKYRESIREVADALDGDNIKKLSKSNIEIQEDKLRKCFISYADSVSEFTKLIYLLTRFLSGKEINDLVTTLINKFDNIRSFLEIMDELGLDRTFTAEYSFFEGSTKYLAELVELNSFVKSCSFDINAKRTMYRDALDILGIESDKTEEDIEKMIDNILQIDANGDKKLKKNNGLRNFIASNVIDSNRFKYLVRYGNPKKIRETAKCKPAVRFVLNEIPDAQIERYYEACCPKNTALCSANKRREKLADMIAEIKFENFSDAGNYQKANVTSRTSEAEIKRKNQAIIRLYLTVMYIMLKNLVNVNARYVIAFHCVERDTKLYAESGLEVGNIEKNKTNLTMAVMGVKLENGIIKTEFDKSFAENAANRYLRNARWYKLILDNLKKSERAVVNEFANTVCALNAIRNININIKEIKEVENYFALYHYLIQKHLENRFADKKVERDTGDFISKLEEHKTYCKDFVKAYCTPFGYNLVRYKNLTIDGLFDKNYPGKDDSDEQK
- EXPERIMENT DESCRIPTION: crRNA (strand 1, pre-loaded); Mg2+; 40 mM Tris-HCl pH 7.5, 150 mM NaCl, 6 mM MgCl2, 1 mM DTT, 0.1% Tween-20, 0.2 mg/ml BSA; 25 C; 10 min per concentration, then washed
- MEASUREMENT SETUP: tags: His6-TwinStrep-SUMO cleaved; N-terminal SNAP kept (SNAP-Surface 488); label: 3' end held by stalled T7 RNA polymerase
READOUT LABEL: Kd (nM)
Return type: number; implicit unit nM.

*Q* Fill blank: measured Kd of the binder target 3 insG 3' of 9,insG 3' of 5 (mixed) RNA 1: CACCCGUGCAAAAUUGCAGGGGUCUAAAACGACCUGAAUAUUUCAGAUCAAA RNA 2: GGGAAUGGAUCCACAUCUACGAAUUCGUUUUUGAUCUGAAAUAGUUCAGGGUCUGCAGAUCGGAAGAGCACACGU is ____.
*A* 60

*Q* Also, target 1 MT 5'PFS UAG 3'PFS CUG (mixed) RNA 1: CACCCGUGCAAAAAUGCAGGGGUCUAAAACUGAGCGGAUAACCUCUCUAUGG RNA 2: GGGAAUGGAUCCACAUCUACGAAUUCUAGCCAUAGAGAGGUUAUCCGCUCACUGAGAUCGGAAGAGCACACGU please.
*A* 22

*Q* Also, target 3 A5G,C6A (mixed) RNA 1: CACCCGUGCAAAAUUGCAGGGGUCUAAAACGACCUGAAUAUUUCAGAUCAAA RNA 2: GGGAAUGGAUCCACAUCUACGAAUUCGUUUUUGAUCUGAAAUAUUAGGGUCUGCAGAUCGGAAGAGCACACGU please.
*A* 34.1

*Q* Also, target 2 MT 5'PFS UUA 3'PFS AGG (mixed) RNA 1: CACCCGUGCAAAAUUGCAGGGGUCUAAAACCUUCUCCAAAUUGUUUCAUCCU RNA 2: GGGAAUGGAUCCACAUCUACGAAUUCUUAAGGAUGAAACAAUUUGGAGAAGAGGAGAUCGGAAGAGCACACGU please.
*A* 23.1

*Q* Also, target 2 MT 5'PFS UCA 3'PFS AGG (mixed) RNA 1: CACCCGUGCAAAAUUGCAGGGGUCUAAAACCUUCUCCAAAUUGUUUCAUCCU RNA 2: GGGAAUGGAUCCACAUCUACGAAUUCUCAAGGAUGAAACAAUUUGGAGAAGAGGAGAUCGGAAGAGCACACGU please.
*A* 3.3

*Q* Also, target 3 insC 3' of 13,insU 3' of 3 (mixed) RNA 1: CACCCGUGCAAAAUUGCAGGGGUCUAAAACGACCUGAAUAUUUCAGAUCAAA RNA 2: GGGAAUGGAUCCACAUCUACGAAUUCGUUUUUGAUCUGACAAUAUUCAGGUUCUGCAGAUCGGAAGAGCACACGU please.
*A* 32.5

*Q* Also, target 1 MT 5'PFS GAA 3'PFS AGA (mixed) RNA 1: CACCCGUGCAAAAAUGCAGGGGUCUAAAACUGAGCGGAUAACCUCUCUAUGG RNA 2: GGGAAUGGAUCCACAUCUACGAAUUCGAACCAUAGAGAGGUUAUCCGCUCAAGAAGAUCGGAAGAGCACACGU please.
*A* 62

*Q* Also, target 3 insC 3' of 8,insU 3' of 3 (mixed) RNA 1: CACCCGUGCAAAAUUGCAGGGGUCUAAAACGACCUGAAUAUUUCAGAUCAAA RNA 2: GGGAAUGGAUCCACAUCUACGAAUUCGUUUUUGAUCUGAAAUAUCUCAGGUUCUGCAGAUCGGAAGAGCACACGU please.
*A* 59
